Hi there, I'd appreciate the recorded relative activity (%) vs C245 for every entry that follows.
target under test: CGRP antigen
test description: cell-based or functional assay
Enter your answer as a number in %; do not include the unit.

In: Entry under review: hu222 (antibody, V domains shown, 3C1 HC-1/3C1 LC-1) VH: QVQLVQSGAEVKKPGASVKVSCKASGYSFTGYTMNWVRQAPGQRLEWMGLINPYIGNTHYNQKFKDRVTFTVDRSSSTAYMELSSLRSEDTAVYYCARELDSGFDYWGQGTLVTVSS VL: DVVMTQSPLSLPVTLGQPASISCRSSQNIVHSNGDTYLEWYQQRPGQSPRLLIYKVSNRFSGVPDRFSGSGSGTDFTLKISRVEAEDVGVYYCYQGSHVPWTFGQGTKLEIK . Reported relative activity (%) vs C245?
Out: 46

In: Again, but for hu234 (antibody, V domains shown, 3C1 HC-4/3C1 LC-1) VH: QVQLVQSGAEVKKPGASVKVSCKASGYTFTGYTMNWVRQAPGQGLEWMGLINPYIGNTHYNQKFKDRVTFTVDRSSSTAYMELSRLRSDDTAVYYCARELDSGFDYWGQGTLVTVSS VL: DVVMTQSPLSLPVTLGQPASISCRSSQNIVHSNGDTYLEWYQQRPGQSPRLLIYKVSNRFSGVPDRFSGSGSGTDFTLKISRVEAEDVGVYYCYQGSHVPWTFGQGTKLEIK
Out: 65

In: Again, but for hu235 (antibody, V domains shown, 3C1 HC-4/3C1 LC-2) VH: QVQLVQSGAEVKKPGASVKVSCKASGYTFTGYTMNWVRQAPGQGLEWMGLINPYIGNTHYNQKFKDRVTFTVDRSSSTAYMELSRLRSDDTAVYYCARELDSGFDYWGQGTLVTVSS VL: DVVMTQTPLSLSVTPGQPASISCRSSQNIVHSNGDTYLEWYLQKPGQSPQLLIYKVSNRFSGVPDRFSGSGSGTDFTLKISRVEAEDVGVYYCYQGSHVPWTFGQGTKLEIK
Out: 45
